These measurements were taken from patent US20230002352A1.

molecular target: human CTPS1 (Homo sapiens, UniProt P17812); construct: purchased Proteros biostructures GmbH; assay: Human CTPS1 enzyme inhibition (ADP-Glo Max assay); format: biochemical; settings: Table 23; ADP-Glo Max assay; read-out: CTPS1 (Human CTPS1 Enzyme Inhibition data grouped by potency range, IC50)
Please go through the items and note down their IC50.

Please report the recorded IC50 for CCOc1cncc(-c2ccc(NC(=O)C(C)(C)c3ccnc(NS(=O)(=O)C4CC4)n3)c(OC)c2)n1 .
≤ 100 nM

What about CCOc1cncc(-c2ccc(NC(=O)C3(c4cccc(NS(=O)(=O)C5CC5)n4)CCOCC3)nc2)n1 ?
≤ 100 nM

What about CC(C)(C(=O)Nc1ccc(-c2cccc(C(F)(F)F)c2)cc1)c1ccnc(NS(=O)(=O)C2CC2)n1 ?
1000 to 10000 nM

What about CCOc1cncc(-c2cc(C)c(NC(=O)C(C)(C)c3ccnc(NS(=O)(=O)C4CC4)n3)cc2C)n1 ?
100 to 1000 nM

What about CC(C)(C(=O)Nc1ccc(-c2cccnc2)cn1)c1cccc(NS(=O)(=O)C2CC2)n1 ?
1000 to 10000 nM

What about CC(C)(C(=O)Nc1ccc(-c2cncc(F)c2)cc1)c1ccnc(NS(=O)(=O)C2CC2)n1 ?
100 to 1000 nM

What about CCOc1cncc(-c2ccc(NC(=O)C3(c4ccnc(NS(C)(=O)=O)n4)CCN(C(=O)OC(C)(C)C)CC3)nc2)n1 ?
100 to 1000 nM

What about CCOc1cncc(-c2ccc(NC(=O)C(C)(C)c3cncc(NS(=O)(=O)C4CC4)n3)cc2)n1 ?
≤ 100 nM

What about CC(C)(C(=O)Nc1ccc(-c2cncc(OC3CC3)n2)cn1)c1ccnc(NS(=O)(=O)C2CC2)n1 ?
≤ 100 nM

What about CCOc1cncc(-c2ccc(NC(=O)C(C)(C)c3ccnc(NS(=O)(=O)C4CCC4)n3)c(C)c2)n1 ?
100 to 1000 nM

What about Cc1cc(-c2cncc(C(F)(F)F)n2)ccc1NC(=O)C(C)(C)c1ccnc(NS(=O)(=O)C2CC2)n1 ?
100 to 1000 nM

What about CCS(=O)(=O)Nc1nccc(C(C)(C)C(=O)Nc2ccc(-c3cncc(C(F)(F)F)n3)cc2)n1 ?
100 to 1000 nM

What about CCOc1cncc(-c2ccc(C(=O)NCc3ccnc(NS(=O)(=O)C4CC4)n3)cc2)n1 ?
≤ 100 nM

What about O=C(Cc1cccc(NS(=O)(=O)C2CC2)n1)Nc1ccc(-c2cncc(Cl)c2)cc1 ?
100 to 1000 nM

What about CCOc1cncc(-c2ccc(NC(=O)C3(c4ccnc(NS(=O)(=O)C5CC5)n4)CN(C(=O)OC(C)(C)C)C3)nc2)n1 ?
100 to 1000 nM

* * *

Target: human CTPS1 (Homo sapiens, UniProt P17812)
Construct: purchased Proteros biostructures GmbH
Assay: Human CTPS1 enzyme inhibition (ADP-Glo Max assay)
Format: biochemical
Settings: Table 24; ADP-Glo Max assay; read-out: CTPS1 (Human CTPS1 Enzyme Inhibition data grouped by potency range, IC50)
Description: Biological Example 1—Human CTPS1 Enzyme Inhibition The enzyme inhibitory activities of compounds invented against the target of interest were determined using the ADP-Glo™ Max assay (Promega, UK). […] In all cases, the enzyme converts ATP to ADP and the ADP-Glo™ Max reagent subsequently depletes any remaining endogenous ATP in the reaction system. […] The percentage inhibition produced by each concentration of compound was calculated using the equation shown below: […]
pIC50: −log10 of the molar value.
assayEndpoint: pIC50

Please report the recorded pIC50 for CCOc1cncc(-c2ccc(NC(=O)C3(c4ccnc(NS(=O)(=O)C5CC5)n4)CCC(F)(F)CC3)nc2)n1 .
≥ 7.00

What about CCOc1cncc(-c2ccc(NC(=O)C3(c4ccnc(NS(=O)(=O)C5CC5)n4)CCC(OC)CC3)nc2)n1 (centres unmarked) ?
≥ 7.00

What about CCOc1cncc(-c2ccc(CNC3(c4ccnc(NS(=O)(=O)C5CC5)n4)CC3)c(F)c2)n1 ?
6.00 to 7.00

What about CCOc1cncc(-c2ccc(NC(=O)C3(c4ccnc(NS(=O)(=O)C5CC5)n4)CCC(N(C)C)CC3)nc2)n1 (single isomer, unassigned) [Example P229] ?
≥ 7.00

What about CCOc1cncc(-c2ccc(CNC3(c4ccnc(NS(=O)(=O)C5CC5)n4)CC3)nc2)n1 ?
6.00 to 7.00

What about CCOc1cncc(-c2ccc(CNC(CC)c3ccnc(NS(=O)(=O)C4CC4)n3)c(F)c2)n1 (centres unmarked) ?
6.00 to 7.00

What about CCOc1cncc(-c2ccc(NCC3(c4ccnc(NS(=O)(=O)C5CC5)n4)CCOCC3)cc2)n1 ?
6.00 to 7.00

What about CCOc1cncc(-c2ccc(NC(=O)C3(c4ccnc(NS(=O)(=O)C5CC5)n4)CC4(C3)OCCO4)nc2)n1 ?
≥ 7.00

What about CCOc1cncc(-c2ccc(NC(=O)C3(c4ccnc(NS(=O)(=O)C5CC5)n4)CCC(O)CC3)nc2)n1 (single isomer, unassigned) [Example P228] ?
5.00 to 6.00

What about CCOc1cncc(-c2ccc(NC(=O)C3(c4ccnc(NS(=O)(=O)C5CC5)n4)CCC(O)CC3)nc2)n1 (single isomer, unassigned) [Example P227] ?
≥ 7.00

What about CCOc1cncc(-c2ccc(NC(=O)C3(c4ccnc(NS(=O)(=O)C5CC5)n4)CCC4(CC3)OCCO4)nc2)n1 ?
≥ 7.00

What about CCOc1cncc(-c2ccc(NC(=O)C3(c4ccnc(NS(=O)(=O)C5CC5)n4)CCC(N(C)C)CC3)nc2)n1 (single isomer, unassigned) [Example P230] ?
≥ 7.00

What about CCOc1cncc(-c2ccc(NC(=O)C3(c4ccnc(NS(=O)(=O)C5CC5)n4)CCN(S(C)(=O)=O)CC3)nc2)n1 ?
≥ 7.00

What about CCOc1cncc(-c2ccc(NC(=O)C3(c4ccnc(NS(=O)(=O)C5CC5)n4)CCC(=O)CC3)nc2)n1 ?
≥ 7.00

* * *

Target: human CTPS1 (Homo sapiens, UniProt P17812)
Construct: purchased Proteros biostructures GmbH
Sequence (P17812 1-591): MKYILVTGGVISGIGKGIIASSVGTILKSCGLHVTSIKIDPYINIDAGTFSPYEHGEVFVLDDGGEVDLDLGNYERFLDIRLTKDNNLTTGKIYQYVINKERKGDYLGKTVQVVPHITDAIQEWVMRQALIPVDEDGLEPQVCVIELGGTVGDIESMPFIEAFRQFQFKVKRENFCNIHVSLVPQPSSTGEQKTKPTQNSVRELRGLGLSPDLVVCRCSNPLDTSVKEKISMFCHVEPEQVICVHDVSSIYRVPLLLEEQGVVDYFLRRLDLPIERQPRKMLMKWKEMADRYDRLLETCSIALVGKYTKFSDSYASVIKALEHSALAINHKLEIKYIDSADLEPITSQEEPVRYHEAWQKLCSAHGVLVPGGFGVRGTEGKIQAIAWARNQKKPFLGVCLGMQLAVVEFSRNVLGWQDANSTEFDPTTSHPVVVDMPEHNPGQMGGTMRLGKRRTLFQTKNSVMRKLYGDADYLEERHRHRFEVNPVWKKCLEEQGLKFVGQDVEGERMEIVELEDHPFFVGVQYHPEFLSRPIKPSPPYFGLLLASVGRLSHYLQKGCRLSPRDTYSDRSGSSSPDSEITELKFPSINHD
Assay: Human CTPS1 enzyme inhibition (ADP-Glo Max assay)
Assay type: biochemical
Conditions: Table 23; ADP-Glo Max assay; read-out: CTPS1 (Human CTPS1 Enzyme Inhibition data grouped by potency range, IC50)
pIC50: −log10 of the molar value.
assayEndpoint: pIC50

Please report the recorded pIC50 for CCOc1cncc(-c2ccc(NC(=O)C(C)(C)c3cc(C)nc(NS(=O)(=O)C4CC4)n3)c(F)c2)n1 .
6.00 to 7.00

What about CC(C)(C(=O)Nc1ccc(-c2cncc(C3CC3)n2)cc1F)c1ccnc(NS(=O)(=O)C2CC2)n1 ?
6.00 to 7.00

What about CCOc1cncc(-c2ccc(NC(=O)C(C)(C)c3ccnc(NS(=O)(=O)C4CC4)n3)cn2)n1 ?
≥ 7.00

What about CC(C)(C(=O)Nc1ccc(-c2cncc(C3CC3)n2)cn1)c1ccnc(NS(=O)(=O)C2CC2)n1 ?
6.00 to 7.00

What about CC(C)(C(=O)Nc1ccc(-c2cncc(C#N)c2)cc1)c1ccnc(NS(=O)(=O)C2CC2)n1 ?
6.00 to 7.00

What about CCOc1cncc(-c2ccc(NC(=O)C3(c4ccnc(NS(=O)(=O)C5CC5)n4)CCOCC3)nc2)n1 ?
≥ 7.00

What about CCOc1cncc(-c2cnc(NC(=O)C(C)(C)c3ccnc(NS(=O)(=O)C4CC4)n3)c(F)c2)n1 ?
≥ 7.00

* * *

Target: human CTPS1 (Homo sapiens, UniProt P17812)
Construct: purchased Proteros biostructures GmbH
Sequence (P17812 1-591): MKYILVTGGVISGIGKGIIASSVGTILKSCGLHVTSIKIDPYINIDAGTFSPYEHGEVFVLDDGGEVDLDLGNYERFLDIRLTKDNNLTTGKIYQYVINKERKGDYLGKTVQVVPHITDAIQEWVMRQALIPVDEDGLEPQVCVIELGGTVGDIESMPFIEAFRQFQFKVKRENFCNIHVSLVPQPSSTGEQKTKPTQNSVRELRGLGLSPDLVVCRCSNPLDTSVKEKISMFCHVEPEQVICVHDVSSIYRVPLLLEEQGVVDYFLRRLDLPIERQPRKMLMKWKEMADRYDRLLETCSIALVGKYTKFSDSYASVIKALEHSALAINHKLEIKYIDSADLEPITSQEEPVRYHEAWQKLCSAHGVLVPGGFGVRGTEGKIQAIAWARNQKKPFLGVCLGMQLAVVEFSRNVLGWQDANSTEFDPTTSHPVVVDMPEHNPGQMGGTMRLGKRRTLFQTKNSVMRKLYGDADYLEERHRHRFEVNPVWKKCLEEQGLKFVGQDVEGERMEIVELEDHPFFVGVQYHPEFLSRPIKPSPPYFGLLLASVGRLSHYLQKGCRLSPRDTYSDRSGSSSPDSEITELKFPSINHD
Test: Human CTPS1 enzyme inhibition (ADP-Glo Max assay)
Format: biochemical
Conditions: Table 23; ADP-Glo Max assay; read-out: CTPS1 (Human CTPS1 Enzyme Inhibition data grouped by potency range, IC50)
Please go through the items and note down their IC50.

Please report the recorded IC50 for CCOc1cncc(-c2cnc(NC(=O)C(C)(C)c3ccnc(NS(C)(=O)=O)n3)c(F)c2)n1 .
100 to 1000 nM

What about CC(C)(C(=O)Nc1ccc(-c2cncc(Cl)c2)cc1)c1ccnc(NS(=O)(=O)C2CC2)n1 ?
100 to 1000 nM

What about CCOc1cncc(-c2ccc(NC(=O)C(C)(C)c3ccnc(NS(=O)(=O)C4CC4)n3)cc2)n1 ?
≤ 100 nM
